// values below are reported Enzyme Activity Endpoint Assay (purified): IgG
# MEASURED_ON: pooled human IgG (human IgG1,2,3 and 4)
PROPERTY_NAME: Enzyme Activity Endpoint Assay (purified): IgG

• PRT-689 (protein) MQITSVWTKGVTPLTMDQFTNNNEDVIHAPYKPGQGWYDITKTFDGKDNLLCGAATAGNMLHWWFDQNKEEIENYLKKHPEKQKIIFNNQKLFDLRKAINTKDSQTNSALFNYFRDKAFPNLSARQLGVMPDLVLDMFINGYYLNVFKTQSTDVNREYQTKDKRGGIFDDVFGRGDQTTLLTARHDLKNGGLNDISQIIKQELSSGKALALSHTYANVSISHVINLWGADFNEEGNLEAIYVTDSDANASIGMKKYYVGKNAHGKVAISAKKIEGENIGAQVLGLFTLSSGKEIWQKLSLEHHHHHH = 376 ng/µL
• PRT-347 (protein) MSQTEDSESLQRLRDIEDFQAEKEMQNVVYTKWLDGVDVKDHDFRKIVDGNSAYYATPLLNGRGWYDINKDFNRDSDKCAAAVAANMFHYWLDINRDNVDRFLRQNPEKHGIIELPDGQLKLSDFLNTYESDHGYRDKSKLFDFISNNFNGPVWTDKLLDNYINGYAYNYKYGRTIEDPTKNTSKINFFKEVFNEKILTNNHSIRNQNEFSVLLSEALYTGKAIGLSYGPAGLRHSLGHIISVWGADLDADGNVVAIYVTDSDDKKLTIGDERVGLKRYKISTDDENRLRLTAYEETHNTGGQVRGLWTLDTGKYAWADYFDKTEQTGTDQAEQ = 0 ng/µL
• PRT-310 (protein) MQITSVWTKGVTPLTPEQFRENNEDVIHAPYLAHQGWYDITKAFDGKDNLLCGAATAGNMLHWWFDQNKTEIEAYLSKHPEKQKIIFNNQELFDLKAAIDTKDSQTNSQLFDYFRDKAFPNLSARQLGVMPDLVLDMFINGYYLNVFKTQSTDVNRPYQDKDKRGGIFDAVFTRGDQTTLLTARHDLKNKGLNDISTIIKQELTEGRALALSHTYANVSISHVINLWGADFDAEGNLEAIYVTDSDANASIGMKKYFVGRNAHGHVAISAKKIEGENIGAQVLGLFTLSSGKDQWQKLS = 0 ng/µL
